# experiment-notes: Rodent pharmacokinetic study
# Format: in vivo, Male Wistar rats
# study-conditions: male, Wistar; rat, oral 3 mg/kg, plasma
readout-name: half-life (h)

{"columns": ["compound", "reading"],
 "data": [
  ["Cn1cc(-c2ccc(Cc3cc(C(=O)N[C@H]4CCCC[C@@H]4O)n4ncccc34)c(F)c2)cn1 [Example 34]", 4.4],
  ["Cn1cc(-c2ccc(Cc3cc(C(=O)N[C@H]4CCCC[C@@H]4O)n4ncccc34)cc2)cn1 [Example 32]", 3.2],
  ["COc1ccc(Cc2cc(C(=O)N[C@H]3CCCC[C@@H]3O)n3ncccc23)cc1 [Example 20]", 3.4],
  ["O=C(N[C@H]1CCCC[C@@H]1O)c1cc(Cc2ccc3c(c2)CCO3)c2cccnn12 [Example 4]", 3.9],
  ["Cn1cc(-c2ccc(Cc3cc(C(=O)N[C@H]4CCCC[C@@H]4O)n4ncccc34)cc2F)cn1 [Example 33]", 2.7],
  ["O=C(N[C@H]1CCCC[C@@H]1O)c1cc(Cc2ccc(Br)c(F)c2)c2cccnn12 [Example 3]", 3.6],
  ["O=C(N[C@H]1CCCC[C@@H]1O)c1cc(Cc2ccc(-n3cccn3)cc2)c2cccnn12 [Example 21]", 3.4]
]}

Where these numbers come from: patent US11234979B2
